Source of measurements: patent US20200031811A1

# maps each entry to its pIC50
biological target: MNK1 (Homo sapiens, UniProt Q9BUB5); assay: MNK inhibition assay (Z-Lyte kinase assay, Ser/Thr 7 peptide); conditions: recombinant GST-MNK1, 3 hours at 31° C.
Sequence (Q9BUB5 whole entry): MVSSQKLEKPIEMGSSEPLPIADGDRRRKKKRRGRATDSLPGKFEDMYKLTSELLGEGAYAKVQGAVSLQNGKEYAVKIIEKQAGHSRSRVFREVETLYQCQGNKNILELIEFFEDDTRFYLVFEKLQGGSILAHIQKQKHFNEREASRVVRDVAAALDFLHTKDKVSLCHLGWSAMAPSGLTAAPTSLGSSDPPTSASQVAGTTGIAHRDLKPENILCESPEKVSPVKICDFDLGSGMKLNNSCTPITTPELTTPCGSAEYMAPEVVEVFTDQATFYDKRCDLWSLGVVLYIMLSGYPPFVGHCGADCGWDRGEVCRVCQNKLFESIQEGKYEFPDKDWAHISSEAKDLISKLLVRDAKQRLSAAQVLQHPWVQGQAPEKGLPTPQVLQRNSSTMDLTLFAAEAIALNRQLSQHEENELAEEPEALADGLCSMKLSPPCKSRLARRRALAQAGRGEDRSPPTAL
pIC50: −log10 of the molar value.
experimental-readout: pIC50

{"chem-smiles": "CC(C)(C)c1cc(NC(=O)Nc2ccc(-c3cncc4ccc(CN5CCC(N)CC5)cc34)cc2)no1", "reported-result": 6.05}
{"chem-smiles": "Nc1cc[n+](Cc2ccc3cncc(-c4ccc(NC(=O)Nc5ccccc5)cc4)c3c2)cc1", "reported-result": 5.68}
{"chem-smiles": "COc1cccc(-c2cncc3ccc(CN4CCC(N)CC4)cc23)c1", "reported-result": 6.05}
{"chem-smiles": "NC1CCN(Cc2cc3c(-c4ccccc4)cncc3cc2Cl)CC1", "reported-result": 7.26}

====

target: MNK1 (Homo sapiens, UniProt Q9BUB5); test: MNK inhibition assay (Z-Lyte kinase assay, Ser/Thr 7 peptide); conditions: recombinant GST-MNK1, 3 hours at 31° C.
pIC50: −log10 of the molar value.

{"compound": "Nc1ncc(-c2cccs2)c2cc(CN3CCC(N)CC3)ccc12 [Example 290]", "pIC50": 6.74}
{"compound": "NC1CCN(Cc2ccc3cncc(-c4ccc(Cl)cc4Cl)c3c2)CC1 [Example 197]", "pIC50": 5.86}
{"compound": "COc1ccc2oc(-c3cncc4ccc(CN5CCC(N)CC5)cc34)cc2c1 [Example 175]", "pIC50": 5.97}
{"compound": "Nc1ncc(-c2ccco2)c2cc(CN3CCC(N)CC3)ccc12 [Example 289]", "pIC50": 6.38}
{"compound": "CCOc1cc(CN2CCC(N)CC2)cc2c(-c3cc4ccccc4o3)cncc12 [Example 281]", "pIC50": 6.53}
{"compound": "Nc1ncc(-c2cc3ccccc3o2)c2cc(N[C@H]3CC[C@H](N)CC3)cc(Cl)c12 [Example 313]", "pIC50": 6.55}
{"compound": "Nc1ccc(Nc2ccc3cncc(-c4cc5ccccc5o4)c3c2)cc1 [Example 132]", "pIC50": 5.51}
{"compound": "COc1cc(NCc2ccc3cncc(-c4cc5ccccc5o4)c3c2)ccn1 [Example 65]", "pIC50": 6.80}
{"compound": "CN(C)c1cc(NCc2ccc3cncc(-c4cc5ccccc5o4)c3c2)ccn1 [Example 68]", "pIC50": 7.35}
{"compound": "O=c1[nH]cc(-c2ccccc2)c2cc(NCc3ccncc3)ccc12 [Example 90]", "pIC50": 5.97}
{"compound": "NC1CCN(Cc2ccc3cncc(-c4cc5cnccc5o4)c3c2)CC1 [Example 275]", "pIC50": 6.76}
{"compound": "Nc1cccc(Nc2ccc3cncc(-c4cc5ccccc5o4)c3c2)c1 [Example 135]", "pIC50": 5.33}
{"compound": "NC1CCCC(NCc2ccc3cncc(-c4ccc(O)cc4)c3c2)C1 (stereo not drawn) [Example 38]", "pIC50": 6.45}
{"compound": "NCCCOCc1ccc2c(N)ncc(-c3ccc(Cl)c(Cl)c3)c2c1 [Example 111]", "pIC50": 5.94}
{"compound": "COc1cc(CN2CCC(N)CC2)cc2c(-c3ccc(F)c(F)c3)cnc(N)c12 [Example 296]", "pIC50": 6.34}
{"compound": "NC1CCN(Cc2ccc3cncc(-c4ccc(NC(=O)Nc5cccc(Cl)c5)cc4)c3c2)CC1 [Example 114]", "pIC50": 5.92}
{"compound": "Nc1ncc(-c2ccccc2)c2cc(CN3CCNCC3)ccc12 [Example 91]", "pIC50": 6.32}
{"compound": "CO[C@H]1CN(Cc2ccc3cncc(-c4cc5ccccc5o4)c3c2)CC[C@H]1N [Example 270]", "pIC50": 6.03}

====

target: UniProt:Q9BUB5; test: MNK inhibition assay (Z-Lyte kinase assay, Ser/Thr 7 peptide); settings: recombinant GST-MNK1, 3 hours at 31° C.
Each entry below carries its reported IC50.

{"chem-smiles": "NC1CCN(Cc2ccc3cncc(-c4ccc5ncccc5c4)c3c2)CC1", "target-of-assay": "UniProt:Q9BUB5", "IC50, nM": 797}
{"chem-smiles": "N[C@H]1CC[C@H](C(=O)Nc2ccc3cncc(-c4cc5ccccc5o4)c3c2)CC1", "target-of-assay": "UniProt:Q9BUB5", "IC50, nM": 371}
{"chem-smiles": "COc1cc(CN2CCC(N)CC2)cc2c(-c3ccccc3)cncc12", "target-of-assay": "UniProt:Q9BUB5", "IC50, nM": 432}
{"chem-smiles": "c1ccc2oc(-c3cncc4ccc(CNc5ccncn5)cc34)cc2c1", "target-of-assay": "UniProt:Q9BUB5", "IC50, nM": 84}
{"chem-smiles": "N[C@@H]1CCN(Cc2ccc3cncc(-c4cc5ccccc5o4)c3c2)C[C@H]1O", "target-of-assay": "UniProt:Q9BUB5", "IC50, nM": 53}
{"chem-smiles": "Nc1cc[n+](Cc2ccc3cncc(-c4ccc(Cl)cc4)c3c2)cc1", "target-of-assay": "UniProt:Q9BUB5", "IC50, nM": 132}
{"chem-smiles": "Nc1cc(Nc2ccc3cncc(-c4cc5ccccc5o4)c3c2)ccn1", "target-of-assay": "UniProt:Q9BUB5", "IC50, nM": 1090}
{"chem-smiles": "Cc1cc(N)cc[n+]1Cc1ccc2cncc(-c3cc4ccccc4o3)c2c1", "target-of-assay": "UniProt:Q9BUB5", "IC50, nM": 52}
{"chem-smiles": "NC1CCN(Cc2ccc3cncc(-c4ccc(NC(=O)Nc5ccc(Cl)cc5)cc4)c3c2)CC1", "target-of-assay": "UniProt:Q9BUB5", "IC50, nM": 3150}

====

Collected IC50 values appear next to each entry.
Molecular target: MNK1 (Homo sapiens)
Experiment: MNK inhibition assay (Z-Lyte kinase assay, Ser/Thr 7 peptide)
Conditions: recombinant GST-MNK1, 3 hours at 31° C.
Method: For the measurement of the activity of the MNK1 kinase the Z-Lyte kinase assay system was used. The kinase activity of MNK1 can be quantified with the Z-Lyte kinase assay kit Ser/Thr 7 peptide (Life Technologies PV3180). The kit was utilized according to the instructions of the provider. […] The % phosphorylation of the substrate peptide at each compound concentration was calculated as described in the assay manual. The fluorescent signals were recordes on Biotek Cytation 3 microplate reader. […]

{"chem-smiles": "Nc1ncc(-c2ccc(F)cc2)c2cc(CN3CCC(N)CC3)ccc12", "units-symbol": "nM", "IC50": 1020}
{"chem-smiles": "N[C@H]1CC[C@H](Oc2cc(Cl)c3cncc(-c4ccccc4)c3c2)CC1", "units-symbol": "nM", "IC50": 105}
{"chem-smiles": "COc1cc(N[C@H]2CC[C@H](N)CC2)cc2c(-c3ccccc3)cncc12", "units-symbol": "nM", "IC50": 87}
{"chem-smiles": "COc1cc2c(N)ncc(-c3ccccc3)c2cc1CN1CCC(N)CC1", "units-symbol": "nM", "IC50": 340}
{"chem-smiles": "Nc1ncc(-c2ccc(O)cc2)c2cc(CN3CCNCC3)ccc12", "units-symbol": "nM", "IC50": 197}

====

Overview of reported IC50 across a group of molecules:
biological target: MNK1 (Homo sapiens, UniProt Q9BUB5); assay: MNK inhibition assay (Z-Lyte kinase assay, Ser/Thr 7 peptide); details: recombinant GST-MNK1, 3 hours at 31° C.
experimental-readout: IC50 (nM)

{"chem-smiles": "Nc1ncc(-c2ccc(F)c(F)c2)c2cc(CN3CCC(N)CC3)ccc12", "reported-result": 351}
{"chem-smiles": "N[C@H]1CC[C@H](Nc2ccc3cncc(-c4ccccc4)c3c2)CC1", "reported-result": 225}
{"chem-smiles": "COc1cc(N[C@H]2CC[C@H](N)CC2)cc2c(-c3cc4ccccc4o3)cncc12", "reported-result": 474}
{"chem-smiles": "Nc1cc(CNc2ccc3cncc(-c4cc5ccccc5o4)c3c2)ccn1", "reported-result": 87}
{"chem-smiles": "NC1CCN(Cc2cc3c(-c4cc5ccccc5o4)cncc3c(F)c2F)CC1", "reported-result": 147}
{"chem-smiles": "Nc1ncc2ccc(CN3CCC(N)CC3)cc2c1-c1cc2ccccc2o1", "reported-result": 847}
{"chem-smiles": "CN(CCCN)Cc1ccc2cncc(-c3ccc(O)cc3)c2c1", "reported-result": 99}
{"chem-smiles": "c1ccc2oc(-c3cncc4ccc(CNc5ccnc6ncccc56)cc34)cc2c1", "reported-result": 28}
{"chem-smiles": "N[C@H]1CC[C@H](Oc2cc(Cl)c3cncc(-c4cc5ccccc5o4)c3c2)CC1", "reported-result": 135}

====

target: MNK1 (Homo sapiens, UniProt Q9BUB5); construct: purchased Life Technologies or Carna Biosciences PV6023 or 02-145; host or cells: baculovirus infected insect cells; assay: MNK inhibition assay (Z-Lyte kinase assay, Ser/Thr 7 peptide); type: biochemical; settings: at 1 μM; read-out: Inhibition of MNK1 activity at indicated concentration

{"compound": "COC(=O)c1ccc(-c2cncc3ccc(CN4CCC(N)CC4)cc23)cc1 [Example 11]", "target-of-assay": "MNK1 (Homo sapiens, UniProt Q9BUB5)", "inhibition at 1 µM (%)": 33}
{"compound": "NCCCOCc1ccc2cncc(-c3ccc(Cl)cc3)c2c1 [Example 106]", "target-of-assay": "MNK1 (Homo sapiens, UniProt Q9BUB5)", "inhibition at 1 µM (%)": 34}
{"compound": "NC(=O)c1cccc(-c2cncc3ccc(CN4CCC(N)CC4)cc23)c1 [Example 21]", "target-of-assay": "MNK1 (Homo sapiens, UniProt Q9BUB5)", "inhibition at 1 µM (%)": 49}
{"compound": "NC1CCN(Cc2ccc3cncc(-c4cccnc4)c3c2)CC1 [Example 14]", "target-of-assay": "MNK1 (Homo sapiens, UniProt Q9BUB5)", "inhibition at 1 µM (%)": 34}
{"compound": "CN(C)CCNc1ccc2cncc(-c3cc4ccccc4o3)c2c1 [Example 99]", "target-of-assay": "MNK1 (Homo sapiens, UniProt Q9BUB5)", "inhibition at 1 µM (%)": 60}
{"compound": "Nc1ncc2ccc(CN3CCC(N)CC3)cc2c1-c1ccccc1 [Example 162]", "target-of-assay": "MNK1 (Homo sapiens, UniProt Q9BUB5)", "inhibition at 1 µM (%)": 54}
{"compound": "N#Cc1cccc(-c2cncc3ccc(CN4CCC(N)CC4)cc23)c1 [Example 5]", "target-of-assay": "MNK1 (Homo sapiens, UniProt Q9BUB5)", "inhibition at 1 µM (%)": 39}
